Data credit: ChEMBL document CHEMBL1154794

- ASSAY_PROCEDURE: Antiinflammatory activity in human neutrophils assessed as inhibition of fMLP/cytochalasin B-induced superoxide anion generation at 10 ug/ml after 5 mins by spectrophotometry
- Assay type: functional
- STATED_CONDITIONS: Neutrophil
Entries annotated with measured inhibition at 10 µg/mL

C=C1C[C@@H](OC(C)=O)/C=C(\COC(C)=O)CC[C@@H]2/C(=C\[C@H](O)C=C(C)C)C(=O)OC[C@@H]12 = 24%
C=C1C[C@@H](OC(C)=O)/C=C(\C)CC[C@@H]2/C(=C\[C@H](O)C=C(C)C)C(=O)OC[C@@H]12 = 9%
C=C1C[C@@H](OC(C)=O)/C=C(\C)CC[C@@H]2/C(=C\C=C\C(C)(C)O)CO[C@H](O)[C@@H]12 = 56%
C=C1C[C@@H](O)[C@@H](O)/C(C)=C\C[C@@H]2C([C@@H](OC(C)=O)[C@H](C=C(C)C)OC(C)=O)=CO[C@H](OC(C)=O)[C@@H]12 = 31%
C=C1C[C@@H](O)[C@@H](O)C(=C)CC[C@@H]2C([C@@H](OC(C)=O)[C@H](C=C(C)C)OC(C)=O)=CO[C@H](OC(C)=O)[C@@H]12 = 22%

Problem: Which inhibition at 10 µg/mL value belongs to O=c1c(-c2ccc(O)cc2)coc2cc(O)cc(O)c12 ?
Result: 65%
